test system: antibodies in sera from SARS patients (sera 1a, 1b, 2, 6, 37, 62, London, SARS-yellow, SARS-green); type: binding, human
Please respond with reported Binding of serum 1b to linear peptides of protein X5 of SARS-CoV Urbani for every item in the list.
Please respond with just the number, no unit label.

Reported Binding of serum 1b to linear peptides of protein X5 of SARS-CoV Urbani, sequence "QTCTPNVTINCQDPA" : ____ 0.7

Which Binding of serum 1b to linear peptides of protein X5 of SARS-CoV Urbani is reported for this sequence? "TYSTAWLCALGKVLP" 0.6

Quick check: Binding of serum 1b to linear peptides of protein X5 of SARS-CoV Urbani of "CALGKVLPFHRWHTM" ? 0.5

Consider the sequence shown here: "YSTAWLCALGKVLPF" What is its recorded Binding of serum 1b to linear peptides of protein X5 of SARS-CoV Urbani? 0.6

What measured Binding of serum 1b to linear peptides of protein X5 of SARS-CoV Urbani goes with "QTAAFRDVLVVLNKR" ? 0.5

----------
test system: rabbit serum obtained by immunizing a rabbit with the SARS-CoV strain Frankfurt 1; type: binding; design: unit not given here
Consider the reported Rabbit serum linear peptides of an entry and match it to a band in group 1: < 0.3; group 2: ≥ 0.3 and < 0.5; group 3: ≥ 0.5

Class (by measured Rabbit serum linear peptides) for "CTPNVTINCQDPAGG" group 2

Which category fits this record: "TKKNYSELDDEEPME" group 1

Which category fits this record: "KLNTDHAGSNDNIAL" group 2

Which bin, given its Rabbit serum linear peptides, does "KVLPFHRWHTMVQTC" occupy? group 3

Category lookup for the sequence "CTSTHFAFACADGTR" group 2

Could you tell me which band "IAIAMACIVGLMWLS" belongs to? group 1

Record "TPNVTINCQDPAGGA" — which class? group 1

In plain terms, what class is "HPLGRCDIKDLPKEI" ? group 1

Band for the recorded Rabbit serum linear peptides of "ALTCTSTHFAFACAD" ? group 3

Please report the category associated with "FAYSNRNRFLYIIKL" , nothing else. group 3

Form: Item = "TAWLCALGKVLPFHR" ; Class = ? group 3

Which Rabbit serum linear peptides category applies to "WIMLLQFAYSNRNRF" here? group 3

Class? Entry: "PFHPLADNKFALTCT" group 2

Hey, which category is "HFAFACADGTRHTYQ" in, do you know? group 2

Class for "VTRPLMESELVIGAV" ? group 2

Assign a bin to "KPLTKKNYSELDDEE" group 2

Hi, small favor: classify "FLFLAWIMLLQFAYS" by its Rabbit serum linear peptides when you get a moment. group 1

----------
test system: antibodies in sera from SARS patients (sera 1a, 1b, 2, 6, 37, 62, London, SARS-yellow, SARS-green); format: binding, human; parameters: unit not given here
Please respond with reported Binding of serum SARS-green to looped/cyclic peptides of protein N of SARS-CoV Urbani for every item in the list.
Reply: number alone, nothing else.

Entry "AQPLPQRQKKQPTVT" : reported Binding of serum SARS-green to looped/cyclic peptides of protein N of SARS-CoV Urbani = ? 0.3

Can you share its Binding of serum SARS-green to looped/cyclic peptides of protein N of SARS-CoV Urbani? I mean this sequence: "ALALLLLDRLNQLES" 0.4

# input sequence: "MDDFSRQLQNSMSGA" ; wanted: its Binding of serum SARS-green to looped/cyclic peptides of protein N of SARS-CoV Urbani 0.3

Returns the measured Binding of serum SARS-green to looped/cyclic peptides of protein N of SARS-CoV Urbani for the input sequence. Input: "ETALALLLLDRLNQL" 0.4

May I ask what Binding of serum SARS-green to looped/cyclic peptides of protein N of SARS-CoV Urbani has been recorded for "TGPEASLPYGANKEG" ? 0.7

Data request, read-out Binding of serum SARS-green to looped/cyclic peptides of protein N of SARS-CoV Urbani, for "FYAEGSRGGSQASSR" 0.4

For "NSGPDDQIGYYRRAT" , what is its reported Binding of serum SARS-green to looped/cyclic peptides of protein N of SARS-CoV Urbani? 0.5

Query: Binding of serum SARS-green to looped/cyclic peptides of protein N of SARS-CoV Urbani; subject: "DGKMKELSPRWYFYY" 0.4

Fill blank: measured Binding of serum SARS-green to looped/cyclic peptides of protein N of SARS-CoV Urbani of the sequence "AFFGMSRIGMEVTPS" is ____. 0.4

Any idea what Binding of serum SARS-green to looped/cyclic peptides of protein N of SARS-CoV Urbani was measured for "TLLPAADMDDFSRQL" ? 0.0

State the recorded Binding of serum SARS-green to looped/cyclic peptides of protein N of SARS-CoV Urbani for this entry: "TRNPNNNAATVLQLP" 0.8

Fill in the blank: the reported Binding of serum SARS-green to looped/cyclic peptides of protein N of SARS-CoV Urbani of "QTVTKKSAAEASKKP" is ____. 0.0

Find the recorded Binding of serum SARS-green to looped/cyclic peptides of protein N of SARS-CoV Urbani belonging to "KQPTVTLLPAADMDD" and report it. 0.6

Which Binding of serum SARS-green to looped/cyclic peptides of protein N of SARS-CoV Urbani value belongs to "PNNNAATVLQLPQGT" ? 0.7

For the sequence shown here, "AYKTFPPTEPKKDKK" , give the reported Binding of serum SARS-green to looped/cyclic peptides of protein N of SARS-CoV Urbani. 0.0

Dear colleague, I am looking for the recorded Binding of serum SARS-green to looped/cyclic peptides of protein N of SARS-CoV Urbani of the following sequence: "KHIDAYKTFPPTEPK" 0.1

Please look up its Binding of serum SARS-green to looped/cyclic peptides of protein N of SARS-CoV Urbani: "QGQTVTKKSAAEASK" 0.1

Which Binding of serum SARS-green to looped/cyclic peptides of protein N of SARS-CoV Urbani value belongs to "FPRGQGVPINTNSGP" ? 0.4

----------
test system: antibodies in sera from SARS patients (sera 1a, 1b, 2, 6, 37, 62, London, SARS-yellow, SARS-green); format: binding, human; set-up: unit not given here
Rule for this label: Met means Binding of serum 62 to looped/cyclic peptides of protein N of SARS-CoV Urbani is less than 0.4; Not met means Binding of serum 62 to looped/cyclic peptides of protein N of SARS-CoV Urbani is at least 0.4.

Dear colleague, could you confirm whether Binding of serum 62 to looped/cyclic peptides of protein N of SARS-CoV Urbani of "ATKQYNVTQAFGRRG" falls below 0.4? Thanks. Not met

Input "STDNNQNGGRNGARP" ; condition: Binding of serum 62 to looped/cyclic peptides of protein N of SARS-CoV Urbani strictly below 0.4. Does it hold? Met

Bench note: check whether "EPKKDKKKKTDEAQP" shows Binding of serum 62 to looped/cyclic peptides of protein N of SARS-CoV Urbani below 0.4 Met

Does the reported Binding of serum 62 to looped/cyclic peptides of protein N of SARS-CoV Urbani of "SSSRSRGNSRNSTPG" stay below 0.4? Met

Here's an entry: "APRITFGGPTDSTDN" . Is its Binding of serum 62 to looped/cyclic peptides of protein N of SARS-CoV Urbani below 0.4? Not met

Say whether its Binding of serum 62 to looped/cyclic peptides of protein N of SARS-CoV Urbani is strictly beneath 0.4. Entry: "KGFYAEGSRGGSQAS" Met

In the record for "GALNTPKDHIGTRNP" , is Binding of serum 62 to looped/cyclic peptides of protein N of SARS-CoV Urbani less than 0.4? Met

Dear colleague, could you confirm whether Binding of serum 62 to looped/cyclic peptides of protein N of SARS-CoV Urbani of "RNPNNNAATVLQLPQ" falls below 0.4? Thanks. Not met

Find out if reported Binding of serum 62 to looped/cyclic peptides of protein N of SARS-CoV Urbani for "YKTFPPTEPKKDKKK" is less than 0.4 Met

Does the reported Binding of serum 62 to looped/cyclic peptides of protein N of SARS-CoV Urbani of the following sequence sit strictly below 0.4? "LNTPKDHIGTRNPNN" Not met

Item "LNQLESKVSGKGQQQ" : Binding of serum 62 to looped/cyclic peptides of protein N of SARS-CoV Urbani beneath 0.4, strictly? Not met

Please indicate whether the reported Binding of serum 62 to looped/cyclic peptides of protein N of SARS-CoV Urbani of "DYKHWPQIAQFAPSA" is strictly below 0.4. Not met

Consider "PTVTLLPAADMDDFS" . Does its Binding of serum 62 to looped/cyclic peptides of protein N of SARS-CoV Urbani lie strictly below 0.4? Met

Lab log: compare recorded Binding of serum 62 to looped/cyclic peptides of protein N of SARS-CoV Urbani with 0.4; is it strictly lower for "RLNQLESKVSGKGQQ" ? Not met

Identify whether the sequence "APSASAFFGMSRIGM" records Binding of serum 62 to looped/cyclic peptides of protein N of SARS-CoV Urbani below 0.4. Not met

Answer whether the sequence "FKDNVILLNKHIDAY" has Binding of serum 62 to looped/cyclic peptides of protein N of SARS-CoV Urbani strictly less than 0.4 Not met

hey, is Binding of serum 62 to looped/cyclic peptides of protein N of SARS-CoV Urbani for "RSRGNSRNSTPGSSR" lower than 0.4 or not? Met

Bench note: check whether "FYAEGSRGGSQASSR" shows Binding of serum 62 to looped/cyclic peptides of protein N of SARS-CoV Urbani below 0.4 Not met

Just wondering, is Binding of serum 62 to looped/cyclic peptides of protein N of SARS-CoV Urbani of "GVPINTNSGPDDQIG" below 0.4? Met

State whether 0.4 exceeds Binding of serum 62 to looped/cyclic peptides of protein N of SARS-CoV Urbani recorded for "PTDSTDNNQNGGRNG" . Met

Find out if reported Binding of serum 62 to looped/cyclic peptides of protein N of SARS-CoV Urbani for "KKKTDEAQPLPQRQK" is less than 0.4 Met

Hello, is Binding of serum 62 to looped/cyclic peptides of protein N of SARS-CoV Urbani of the following sequence strictly smaller than 0.4? "QGLPNNTASWFTALT" Not met

Determine whether this sequence shows Binding of serum 62 to looped/cyclic peptides of protein N of SARS-CoV Urbani lower than 0.4 (ties excluded): "KQYNVTQAFGRRGPE" Met

# TODO verify Binding of serum 62 to looped/cyclic peptides of protein N of SARS-CoV Urbani < 0.4 strictly for this sequence: "TLLPAADMDDFSRQL" Met

Input "DHIGTRNPNNNAATV" ; condition: Binding of serum 62 to looped/cyclic peptides of protein N of SARS-CoV Urbani strictly below 0.4. Does it hold? Not met

Does this sequence meet the criterion Binding of serum 62 to looped/cyclic peptides of protein N of SARS-CoV Urbani < 0.4? "PINTNSGPDDQIGYY" Not met

Take the sequence "RGPEQTQGNFGDQDL" and say whether its Binding of serum 62 to looped/cyclic peptides of protein N of SARS-CoV Urbani is less than 0.4. Not met

Please determine if "GQTVTKKSAAEASKK" is below 0.4 in terms of Binding of serum 62 to looped/cyclic peptides of protein N of SARS-CoV Urbani. Met

Does the reported Binding of serum 62 to looped/cyclic peptides of protein N of SARS-CoV Urbani of "GNSRNSTPGSSRGNS" stay below 0.4? Not met

Strictly below 0.4: is that where Binding of serum 62 to looped/cyclic peptides of protein N of SARS-CoV Urbani of "FGRRGPEQTQGNFGD" sits? Met

hey, is Binding of serum 62 to looped/cyclic peptides of protein N of SARS-CoV Urbani for "NSGPDDQIGYYRRAT" lower than 0.4 or not? Not met
